- Tested on: OVCAR-5 ovarian
- test method notes: NCI tumour cell line growth inhibition, 48 h
endpoint label: TGI

TGI for CCCCNC(=O)C1C(=O)N(CCCC)C(=O)/C1=N\N (stereo unspecified) ?
> 100 µM

TGI for O=[N+]([O-])c1cc([N+](=O)[O-])c(/C=C/c2ccc(Cl)c(Cl)c2)cc1/C=C/c1ccc(Cl)c(Cl)c1 ?
> 100 µM

TGI for Cc1[nH]c(=O)[nH]c(=O)c1/C=C/C(=O)NC(CO)CS(=O)Cc1ccccc1 (stereo unspecified) ?
> 300 µM

TGI for CCCNCC(=O)O[C@]1(CC)C(=O)OCc2c1cc1n(c2=O)Cc2cc3ccccc3nc2-1 ?
3.96 µM

TGI for CC(=O)OCC1OC(n2c3c(cc(C#N)c2=S)CCC3)C(OC(C)=O)C(OC(C)=O)C1OC(C)=O (stereo unspecified) ?
> 100 µM

TGI for Cn1ccc(C(=O)NCCN(CCNC(=O)c2ccn(C)c(=O)c2O)CCNC(=O)c2ccn(C)c(=O)c2O)c(O)c1=O ?
> 100 µM

TGI for C/C(CC(=O)Nc1cc(C)ccc1C)=N/N=C(N)N ?
> 100 µM

TGI for CN(C)CCCNc1ncnc2c1ncn2C1OC(CO)C(O)C1O (stereo unspecified) ?
> 100 µM

TGI for COC(=O)C1=C(OC(=O)/C(=C/c2ccccc2)c2ccc(Cl)cc2)C(C(=O)OC)[C@@]2(O)[C@@H](C(=O)OC)[C@H](C)C[C@@H]1[C@@H]2C(=O)OC (stereo partly specified) ?
> 100 µM

TGI for O=c1/c(=C/c2ccc([N+](=O)[O-])o2)sc2n1[C@@H](c1ccc(Cl)cc1)C=C(c1cc(F)c(Cl)cc1Cl)N=2 ?
30.6 µM

TGI for OCCCNc1ncnc2[nH]ncc12 ?
> 100 µM

* * *

- System: IGROV1 ovarian
- test method notes: NCI tumour cell line growth inhibition, 48 h
endpoint label: TGI

TGI for COc1cc2c(cc1OCCCOS(C)(=O)=O)N=C[C@@H]1CCCN1C2=O ?
> 100 µM

TGI for O=C(/C=C/c1ccc(C(F)(F)F)cc1)c1c([O-])on[n+]1-c1ccccc1 ?
4.02 µM

TGI for O=C(O)C(C(=O)O)P(=S)(S)c1ccccc1 (stereo not given) ?
> 100 µM

TGI for CCOP12(OCC)NC(=O)OC1(C(F)(F)F)c1ccccc1O2 (stereo not given) ?
> 100 µM

TGI for N#C[Se]CCN1C(=O)C2C(C1=O)[C@H]1C=C[C@@H]2S1 (stereo not given in full) ?
3.48 µM

TGI for COc1cc(/C(=C2/O[C@@H]([C@H]3COC(C)(C)O3)[C@H]3OC(C)(C)O[C@@H]23)c2ccc3ccccc3c2)cc(OC)c1OC ?
10.9 µM

TGI for COC(=O)C1=COC(OC2OC(CO)C(O)C(O)C2O)C2C3CN4CCc5c([nH]c6ccccc56)C4(CC12)O3 (stereo not given) ?
> 100 µM

TGI for C/C(CC(=O)Nc1cc(C)ccc1C)=N/N=C(N)N ?
> 100 µM

TGI for CCCCCCCCC/C(=N\NC(=O)c1ccncc1)c1ccc(O)c(O)c1O ?
> 78.1 µM

TGI for CONC(C)=O ?
> 100 µM

* * *

- Test system: LOX IMVI melanoma
- test method notes: NCI tumour cell line growth inhibition, 48 h
For each record, write down the corresponding GI50.

GI50 for N=C(N)SCc1c2ccccc2c(CSC(=N)N)c2ccccc12 ?
1400 nM

GI50 for Cn1nc(C(F)(F)F)cc1-c1c[nH]c(OCc2ccc(Cl)cc2)c(-c2ccc(Cl)c(C(F)(F)F)c2)c1=O ?
1230 nM

GI50 for CCCc1cc(=O)n2c(C(=O)Nc3cccc(C(=O)OCC)c3)c(C(=O)Nc3ccc(F)cc3)sc2n1 ?
6650 nM

GI50 for CC[C@@]1(O)C(=O)OCc2c1cc1n(c2=O)Cc2cc3cccc([N+](=O)[O-])c3nc2-1 ?
429 nM

GI50 for CCOC(=O)Nc1nc2ccc(Br)cc2s1 ?
> 50000 nM

* * *

- Test system: SK-MEL-2 melanoma
- test method notes: NCI tumour cell line growth inhibition, 48 h
For each record, write down the corresponding GI50.

GI50 for CCOC(=O)Nc1nc2ccc(Br)cc2s1 ?
> 50 µM

GI50 for NC1CCCCC1N.O=[Se]([O-])[O-].[Pt+4] (centres undefined) ?
6 µM

GI50 for [Cl][Hg][c]1ccc(Cl)s1 ?
4.65 µM

GI50 for CCOC(=O)c1cc(C(=O)c2cc(OC)c(OC)c(OC)c2)n2c1ccc1ccccc12 ?
0.932 µM

GI50 for COc1cc2ncnc(Nc3cccc(Cl)c3F)c2cc1OC(=O)N1CCN(C)C[C@H]1C ?
> 43.6 µM

GI50 for CC(=O)Nc1c(I)c(NC(C)=O)c(I)c(C(=O)O)c1I ?
> 100 µM

GI50 for COCCNc1ccc2c3c(cccc13)C(=O)N(CCN(C)C)C2=O ?
8.24 µM

GI50 for C=C1C(=O)O[C@H]2[C@H]1CC/C(C=Nc1c(N)cc(C(F)(F)F)cc1C(F)(F)F)=C\CC[C@@]1(C)O[C@@H]21 ?
1.41 µM

GI50 for CCCCCCCCC/C(=N\NC(=O)c1ccncc1)c1ccc(O)c(O)c1O ?
0.521 µM

GI50 for N/C(=N/N=C/c1ccccc1)N/N=C\c1ccccc1 ?
3.58 µM

GI50 for COc1ccc2c(c1)oc(=O)c1cc(OC)ccc12 ?
> 100 µM

GI50 for C=C1C(=O)O[C@H]2C[C@@H]1CC/C(C)=C/CC/C(C)=C/CC[C@@]2(C)O ?
46.7 µM

GI50 for Cc1nc(-c2nc(-c3ccc(OC(F)(F)F)cc3)no2)nn1Cc1cccc(N2CCC(S(C)(=O)=O)CC2)c1 ?
> 35.1 µM

GI50 for CCN1C(=O)N(CC)C2C1NN=c1s/c(=C\c3ccco3)c(=O)n12 (centres undefined) ?
0.84 µM

* * *

For each record, write down the corresponding TGI.
- Test system: LXFL 529 NSCLC
- test method notes: NCI tumour cell line growth inhibition, 48 h
Numbers only here, please. The scale is µM.

TGI for O=[N+]([O-])c1cc([N+](=O)[O-])c(/C=C/c2ccc(Cl)c(Cl)c2)cc1/C=C/c1ccc(Cl)c(Cl)c1 ?
56.1

TGI for O=[N+]([O-])c1ccc(C2=Nn3c(nnc3-c3ccc(Cl)cc3)SC2)o1 ?
14.1

* * *

For each record, write down the corresponding TGI.
- Test system: MALME-3M melanoma
- test method notes: NCI tumour cell line growth inhibition, 48 h
Numbers only here, please. The scale is µM.

Lab request: please report TGI under test system MALME-3M melanoma for c1ccc2cc(NCNc3ccc4ccccc4c3)ccc2c1
20

Lab request: please report TGI under test system MALME-3M melanoma for COc1cc2c(cc1Cc1cccc(Cl)c1F)c(=O)c(C(=O)O)cn2[C@@H](CO)C(C)C
18.9

Lab request: please report TGI under test system MALME-3M melanoma for [Cl][Hg][c]1ccc(Cl)s1
2.94

Lab request: please report TGI under test system MALME-3M melanoma for COc1ccc(-c2cc(-c3ccc(O)cc3O)c(C#N)c(=O)[nH]2)cc1
70.4

Lab request: please report TGI under test system MALME-3M melanoma for O=C1[C@@H]2C(c3ccccc3[N+](=O)[O-])=[N+](c3ccccc3)O[C@@H]2C(=O)N1c1ccc(Cc2ccc(N3C(=O)[C@H]4C(c5ccccc5[N+](=O)[O-])=[N+](c5ccccc5)O[C@H]4C3=O)cc2)cc1
81.6

* * *

For each record, write down the corresponding TGI.
- Test system: ACHN renal
- test method notes: NCI tumour cell line growth inhibition, 48 h

Lab request: please report TGI under test system ACHN renal for N#Cc1ccc(N2CCOCC2)cc1
> 100 µM

Lab request: please report TGI under test system ACHN renal for COc1cc2ncnc(Nc3cccc(Cl)c3F)c2cc1OC(=O)N1CCN(C)C[C@H]1C
> 46.3 µM

Lab request: please report TGI under test system ACHN renal for CCC(O)C1Cc2c(C)cc3c(c2O1)C(=O)c1ccccc1C3=O (stereo not drawn)
> 100 µM

* * *

- System: COLO 205 colon
- test method notes: NCI tumour cell line growth inhibition, 48 h
endpoint label: TGI

TGI for COc1cc2ncnc(Nc3cccc(Cl)c3F)c2cc1OC(=O)N1CCN(C)C[C@H]1C ?
> 58.1 µM

TGI for OCCCNc1ncnc2[nH]ncc12 ?
> 100 µM

TGI for O=C(NNC1=NCCCCN1)Nc1ccc(Cl)cc1 ?
> 100 µM

* * *

- Test system: COLO 205 colon
- test method notes: NCI tumour cell line growth inhibition, 48 h
Where a SMILES comes first, the peptide text is derived from it. [ ]: non-standard residue; d: D form. Phe(4-NO2) = N[CH](Cc1ccc([N+](=O)[O-])cc1)C(=O)O
endpoint label: TGI

TGI for O=C(O)COc1ccc(C(=O)/C(SS/C(C(=O)c2ccc(OCC(=O)O)c(Cl)c2Cl)=C2\C=C(c3ccc(Cl)cc3)SS2)=C2/C=C(c3ccc(Cl)cc3)SS2)c(Cl)c1Cl ?
1.27 µM

TGI for O=C1C=CC(=O)c2c1ccc1c3ccccc3n(-c3ccccc3)c21 ?
22.8 µM

TGI for O=C(O)CCc1nc2ccccc2[nH]1 ?
> 100 µM

TGI for CCOC(=O)C(Cc1cn(C(C)=O)c2ccccc12)P(=O)(OCC)OCC (stereo not given) ?
> 100 µM

TGI for Cc1ccc(-c2cc3c4c(nc5ccccc53)C(=O)c3cccnc3-c4n2)cc1 ?
30.1 µM

TGI for Cc1ccc(C(c2c(O)c3ccccc3n(-c3ccccc3)c2=O)c2c(O)c3ccccc3n(-c3ccccc3)c2=O)cc1 ?
> 100 µM

TGI for O=C1C=CC2(C=C1)CCNC1=C2C(=O)c2ccccc2C1=O ?
> 100 µM

TGI for COc1cc2c(cc1OCCCOS(C)(=O)=O)N=C[C@@H]1CCCN1C2=O ?
> 100 µM

TGI for COc1cccc(/C=N/NC(=O)c2ccccc2N2CCCC2)c1O ?
> 100 µM

TGI for OCCCNc1ccnc2cc(Cl)ccc12 ?
> 100 µM

TGI for CCCN(CCC)C(=S)N/N=C/c1ccccn1 ?
0.509 µM

TGI for Nc1nc(Cl)cc(NCC(O)CO)n1 (stereo not given) ?
> 100 µM

TGI for CC1(Br)CC2OC3(Br)C=CC(C)(O)C2(CC1=O)C3(C)C (stereo not given) ?
> 100 µM

TGI for NNC(=O)CCSc1ccccc1 ?
> 100 µM

TGI for CC(NC(=O)C(Cc1ccc([N+](=O)[O-])cc1)NC(=O)C(N)CCCCN)C(=O)NC(Cc1ccc([N+](=O)[O-])cc1)C(N)=O (stereo not given) (H-K[Phe(4-NO2)]A[Phe(4-NO2)]-NH2; configuration not given here) ?
> 100 µM
